- TESTED_SYSTEM: Recombinant CatD (Homo sapiens (Human), UniProt P07339)
- Sequence (P07339 65-412): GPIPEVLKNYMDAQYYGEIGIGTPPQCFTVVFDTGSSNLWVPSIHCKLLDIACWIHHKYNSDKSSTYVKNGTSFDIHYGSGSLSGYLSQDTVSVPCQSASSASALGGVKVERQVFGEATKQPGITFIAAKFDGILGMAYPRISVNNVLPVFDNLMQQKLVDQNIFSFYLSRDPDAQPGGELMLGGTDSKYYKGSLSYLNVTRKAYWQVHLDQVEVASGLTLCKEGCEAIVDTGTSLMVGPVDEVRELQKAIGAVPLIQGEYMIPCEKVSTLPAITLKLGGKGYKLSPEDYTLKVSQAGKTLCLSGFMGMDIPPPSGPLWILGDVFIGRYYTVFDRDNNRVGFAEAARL
- EXPERIMENT_DESCRIPTION: In vitro enzymatic Cathepsin D (CatD) FRET assay
- PROTOCOL_CONDITIONS: pH 3.5, read-out: CatD Enzyme IC50
Field: IC50. Provide a value for each of the compounds that follow.
Report the value in µM with no unit label.

Query: Which IC50 value is on record for C#CCOc1cnc(/C(F)=C/c2ccc(F)c([C@]3(C)CO[C@@](C)(C(F)(F)F)C(N)=N3)c2)cn1 [Example 107] ?
Reply: 82.5

Query: Which IC50 value is on record for C[C@@]1(c2cc(/C=C(\F)c3ccc(Cl)cn3)ccc2F)CO[C@@](C)(C(F)(F)F)C(N)=N1 [Example 103] ?
Reply: 19.2

Query: Which IC50 value is on record for C[C@@]1(c2cc(/C=C(\F)c3cnc(C#N)cn3)ccc2F)CO[C@@](C)(C(F)(F)F)C(N)=N1 [Example 105] ?
Reply: 415

Where do the numbers come from? From patent US10947223B2.
